experiment description: Hemolytic activity against human RBC at 128 uM after 1 hr
Assay type: ADME, cell-based, Erythrocyte
condition: red blood cells (erythrocytes), read-out: Activity
parameter: hemolysis at 1 h, 128 µM

Ask: Field request: hemolysis at 1 h, 128 µM | item: H-LRPLLRPLLRPLLRPLLRPLLRPLLRPL-NH2
Result: > 40%

---

Tested on: Escherichia coli
experiment description: Bactericidal activity against Escherichia coli K88 incubated for 4 hrs followed by culture spread on agar plates and cultured overnight
Format: functional
condition: K88, 4 h, read-out: MBC>99.9
parameter: MBC (µM)
State the answer as a number, implicitly in µM.

substance | recorded measurement
H-LKPLLKPLLKPLLKPLLKPLLKPL-NH2 | 2
H-LKPLLKPLLKPLLKPL-NH2 | 16
H-VRPVVRPVVRPVVRPVVRPVVRPVVRPV-NH2 | 32
H-LRPLLRPLLRPLLRPLLRPLLRPL-NH2 | 4
H-LKPLLKPLLKPLLKPLLKPLLKPLLKPLLKPL-NH2 | 1
H-IKPIIKPIIKPIIKPIIKPIIKPI-NH2 | 8
H-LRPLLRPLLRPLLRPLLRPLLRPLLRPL-NH2 | 1
H-LKPLLKPLLKPLLKPLLKPL-NH2 | 2

Ask: Entry H-IKPIIKPIIKPIIKPIIKPIIKPIIKPIIKPI-NH2 , system Escherichia coli: what MBC was measured?
Result: 2

Ask: Try H-VRPVVRPVVRPVVRPVVRPVVRPV-NH2 next.
Result: 8

---

Entries and their MBC values follow.
System: Pseudomonas aeruginosa
experiment description: Bactericidal activity against Pseudomonas aeruginosa ATCC 27853 incubated for 4 hrs followed by culture spread on agar plates and cultured overnight
Type: functional
condition: ATCC 27853, 4 h, read-out: MBC>99.9

substance | recorded measurement
H-LRPLLRPLLRPLLRPLLRPL-NH2 | 16 µM
H-IKPIIKPIIKPIIKPI-NH2 | > 64 µM
H-VKPVVKPVVKPVVKPVVKPVVKPVVKPV-NH2 | > 64 µM

Ask: What measured MBC goes with H-LRPLLRPLLRPLLRPL-NH2 ?
Result: > 64 µM

Ask: Record: H-IKPIIKPIIKPIIKPIIKPIIKPIIKPIIKPI-NH2
Result: > 64 µM

---

Tested on: Pseudomonas aeruginosa
experiment description: Antimicrobial activity against Pseudomonas aeruginosa CICC 21625 clinical isolates after 24 hrs by NCCLS-protocol based assay
Type: functional
condition: CICC 21625, 24 h
Listed here are substances together with their documented MIC95.
Number in µM, nothing else.

Some solved entries appear below for comparison.
substance | MIC95 [µM]
H-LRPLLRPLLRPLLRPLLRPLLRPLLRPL-NH2 | 8
H-LRPLLRPLLRPLLRPLLRPL-NH2 | 32

Consider the additional substance presented here.
Ask: I would be grateful if you could share the reported MIC95 for H-LRPLLRPLLRPLLRPLLRPLLRPLLRPLLRPL-NH2 .
Result: 8

---

Test system: Salmonella typhimurium
experiment description: Bactericidal activity against Salmonella typhimurium C7731 incubated for 4 hrs followed by culture spread on agar plates and cultured overnight
Assay type: functional, Salmonella enterica subsp. enterica serovar Typhimurium
condition: Salmonella enterica, C7731, 4 h; read-out: MBC>99.9
parameter: MBC (µM)
Give just the number in µM; leave the unit off.

substance | parameter | measurement units | recorded measurement
H-LKPLLKPLLKPLLKPLLKPL-NH2 | MBC | µM | 16
H-IRPIIRPIIRPIIRPI-NH2 | MBC | µM | 32
H-IRPIIRPIIRPIIRPIIRPIIRPIIRPI-NH2 | MBC | µM | 2
H-VRPVVRPVVRPVVRPVVRPVVRPV-NH2 | MBC | µM | 32
H-VRPVVRPVVRPVVRPVVRPVVRPVVRPV-NH2 | MBC | µM | 32

Now, please, on to the next substance.
Ask: What value of MBC has been reported for the following substance? H-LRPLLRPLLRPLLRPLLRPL-NH2
Result: 8
